biological target: T1, VISTA-His ECD (Sino Biological 13482-H08H) (human, UniProt Q9H7M9 33-194); experiment: BLI (Octet K2), ratio of off-rates at pH 7.4 to control Ab No. 245.1
T1 construct: Bought protein; also called VISTA-ECD; not shown: His tag
The entries below are paired with their reported Kdis (pH 7.4) ÷ Kdis, Ab No. 245.1 (pH 7.4).
Answer in s⁻¹, number only, no unit symbol.

QUERY: What does the record list as Kdis (pH 7.4) ÷ Kdis, Ab No. 245.1 (pH 7.4) for Antibody No. 474.1 with VL Y31H, VH Y32H (antibody, V domains shown) VH: QVQLQESGPGLVKPSETLSLTCTVSGGSISSHYWSWIRQPPGKGLEWIGYIYYSGSTNYNPSLKSRVTISVDTSKSQFSLKLSSVTAADTAVYYCARDIPAFAFDIWGQGTMVIVSS VL: EIVLTQSPATLSLSPGERATLSCRASQSVSHYLAWYQQKPGQAPRLLIYDAFNRATGIPARFSGSGSGTDFTLTISSLEPEDFAVYYCQQRINWPLTFGGGTKVEIK ?
RESULT: 12

QUERY: What does the record list as Kdis (pH 7.4) ÷ Kdis, Ab No. 245.1 (pH 7.4) for Antibody No. 474.1 with VL Y32H, VH Y52H (antibody, V domains shown) VH: QVQLQESGPGLVKPSETLSLTCTVSGGSISSYYWSWIRQPPGKGLEWIGYIHYSGSTNYNPSLKSRVTISVDTSKSQFSLKLSSVTAADTAVYYCARDIPAFAFDIWGQGTMVIVSS VL: EIVLTQSPATLSLSPGERATLSCRASQSVSYHLAWYQQKPGQAPRLLIYDAFNRATGIPARFSGSGSGTDFTLTISSLEPEDFAVYYCQQRINWPLTFGGGTKVEIK ?
RESULT: 45

This collection of values is drawn from patent US20240132593A1.
